These measurements were taken from ChEMBL document CHEMBL1201862.

tested on: T47D; assay: NCI tumour cell line growth inhibition, 48 h
Active and inactive are the calls of the source. Cut-off read from the data, not from the text of the source: active = GI50 up to about 1.1 µM and inactive = higher. Non-standard residues stand in square brackets, D forms with d. Residues, ends and D or L forms follow the SMILES beside them. *: point of attachment. Ac5c = NC1(C(=O)O)CCCC1; Cbz = O=C(OCc1ccccc1)*; Boc = CC(C)(C)OC(=O)*; tBu = CC(C)(C)*
Give measured GI50 for each item. Keep answers brief.

Report value only: GI50, T47D, COc1ccc(/C=C2\N/C(=N/N)N=C2Cl)cc1
> 100 µM (inactive)

Under T47D, report GI50 for COC(=O)C1(NC(=O)C(Cc2ccccc2)NC(=O)C(NC(=O)C(CCCCNC(=O)OC(C)(C)C)NC(=O)C(Cc2c[nH]c3ccccc23)NC(=O)C(Cc2ccccc2)NC(=O)OCc2ccccc2)C(C)OC(C)(C)C)CCCC1 (centres undefined) (Cbz-FWK(Boc)T(tBu)F[Ac5c]-OMe; configuration not given here)
24.6 µM (inactive)

Look up and report GI50, with T47D as system, for COc1ccc2oc(=O)c3c(c2c1C)OC(C)(C)C=C3
> 100 µM (inactive)

Give GI50; test system T47D; compound COc1ccc2nc3n(c2c1)CCc1cc(OC)c(OC)cc1-3
34.6 µM (inactive)

Return reported GI50 for target or system T47D, item O=c1[nH]nc(Cc2ccccc2)n1O .
> 100 µM (inactive)

GET GI50 | system: T47D | item: COc1ccc(/N=c2/oc3ccccc3cc2C(N)=O)cc1
> 100 µM (inactive)

Write down measured GI50 (T47D) for this compound. NC(=O)c1ccc(N)nc1 [6-AMINONICOTINAMIDE]
> 255 µM (inactive)

Please look at COc1ccc(Nc2nc(N)c(C(=O)c3cccs3)s2)cc1 and tell me its recorded GI50 on T47D.
15.8 µM (inactive)

Param request: GI50 | system T47D | item NC1=Nc2cc(C(F)(F)F)ccc2Sc2nc3ccccc3n21
26.6 µM (inactive)

----------
system: A549; experiment: NCI tumour cell line growth inhibition, 48 h
Active and inactive are the calls of the source. Cut-off read from the data, not from the text of the source: active = GI50 up to about 1.1 µM and inactive = higher.
MEASURE: GI50

Output GI50 of CCOc1ccc2nc3cc(/N=N/c4ccc(N)nc4N)ccc3c(N)c2c1
15 µM (inactive)

Entry CC1SC2=NC3=C(c4ccccc4C3=O)C(c3ccc(F)cc3)N2C1=O (stereo unspecified) needs its GI50 filled in; supply it.
> 100 µM (inactive)

Identify the reported GI50 for the following entry. N#CC1=C(N)N2C(=O)/C(=C/c3ccccc3O)N=C2S1
> 100 µM (inactive)

Find the measured GI50 of CCOc1cc2c(=O)oc3c(OC)ccc4ccc(c1OC)c2c43 and report it.
28.5 µM (inactive)

Provide only the value of recorded GI50 for c1cc2c(s1)-c1sccc1C21OCCO1
69 µM (inactive)

Supply GI50 value. Item: NNc1nnc(-c2ccccc2)nc1Cc1ccccc1
6.41 µM (inactive)

Check the records and state GI50 for O=[N+]([O-])c1cnc(N(CCO)CCO)s1
> 100 µM (inactive)

Give reported GI50 value for COc1cc2ccc(C(=O)O)cc2cc1OC
> 100 µM (inactive)

Determine from records and report GI50 for C=C1C(=O)O[C@H]2C/C(C=O)=C\[C@H]3O[C@H]3/C(COC(=O)C(C)C)=C/CC12 (stereo partly specified)
16.9 µM (inactive)

Item N#CC(C(=O)CCC(=O)Nc1cccc(C(F)(F)F)c1)c1ccc(Cl)cc1 (stereo unspecified) : provide GI50
> 100 µM (inactive)

Supply GI50 value. Item: CSc1nc2c(c(=O)[nH]1)N=C(c1ccccc1)CC(c1ccccc1)N2 (stereo unspecified)
32.1 µM (inactive)

----------
system: ACHN; assay: NCI tumour cell line growth inhibition, 48 h
The source made the active and inactive calls. Rule as the data show it: active = GI50 up to about 1.1 µM and inactive = higher. Starred links: 1 amine or outer side, 2 acyl side, 3 side chain; linkers in the order of their positions; H or OH if unused. Positions of bridges follow the written chain, without caps; N, C: chain ends. Non-standard residues stand in square brackets, D forms with d. Residues, ends and D or L forms follow the SMILES beside them. Chains are numbered I, II in the order given. Actinocin(9to1) = Cc1c2oc3c(C)ccc(C(=O)[*:1])c3nc-2c(C(=O)[*:2])c(N)c1=O; NMeV = CN[CH](C(=O)O)C(C)C; Sar = CNCC(=O)O
Result category, one only: T for active, F for inactive

Returns: the outcome recorded for CC(=O)N1CC2Nc3ccccc3C2CC1CO (stereo not drawn) in this assay.
F

Outcome? CC(C)(O)[C@H](CCO)O[Si](c1ccccc1)(c1ccccc1)C(C)(C)C
F

Please share the test call associated with CCOc1ccc2nc3cc(/N=N/c4ccc(N)nc4N)ccc3c(N)c2c1 .
F

// outcome(item) with item = CC(C)/C(Cl)=N\OC(=O)Nc1cccc(Cl)c1
F

For COc1ccc(/C(Cl)=C(\C=O)c2ccccc2)cc1OC , which call appears in the assay record?
F

Outcome? CC[C@@H]1OC2(C)CC(S(=O)(=O)c3ccccc3)CC1O2 (stereo partly drawn)
F

Could you please tell me the result logged for CC(C)(C)N/N=C(/Cc1nc2c3c(ccc2nc1O)C(=O)c1ccccc1C3=O)C(=O)NC1=C(Cl)C(=O)c2ccccc2C1=O in this assay?
F

Hi, sorry to bother you, what did the test record for Cc1c2oc3c(C)ccc(C(=O)NC4C(=O)NC(Cc5ccc(O)cc5)C(=O)N5CCCC5C(=O)N(C)CC(=O)N(C)C(C(C)C)C(=O)OC4C)c3nc-2c(C(=O)NC2C(=O)NC(Cc3ccc(O)cc3)C(=O)N3CCCC3C(=O)N(C)CC(=O)N(C)C(C(C)C)C(=O)OC2C)c(N)c1=O (stereo not drawn) (I: TYP[Sar][NMeV] / II: TYP[Sar][NMeV]; ester I:1-I:C, II:1-II:C; linker I:N-II:N via Actinocin(9to1); configuration not given here) ?
T

----------
tested on: SNB-78; assay: NCI tumour cell line growth inhibition, 48 h
The source made the active and inactive calls. No stated cut-off is given here; in the data, active = GI50 up to about 1.1 µM and inactive = higher.
MEASURE: GI50

Specify reported GI50 for the compound shown: Cc1ccc(C2OC(COCc3ccc(Cl)cc3)C(OCc3ccc(Cl)cc3)C2O)cc1 (configuration not stated)
14.3 µM (inactive)

State its GI50 for this compound: CC(C)(O)[C@H](CCO)O[Si](c1ccccc1)(c1ccccc1)C(C)(C)C
15 µM (inactive)

Annotate the compound Cn1c(=O)n(C2(C)C[Se]C2)c2ccccc21 with its measured GI50.
> 100 µM (inactive)

Indicate the recorded GI50 value for this compound: OCC(O)C(OC1OC(CO)C(O)C(O)C1O)c1nn(-c2ccc(Cl)cc2)c2nc3cc(Cl)ccc3nc12 (configuration not stated)
> 100 µM (inactive)

Using the record for Cn1c2c(c3ccccc31)CCN(CCCCN1CCN(c3ccccc3)CC1)C2=O , state its measured GI50.
> 100 µM (inactive)

Specify GI50 for OC1=CN=COc2ccccc21 and stop.
> 100 µM (inactive)

Provide measured GI50 value, entry: COc1ccc(C2COc3c(ccc(O)c3C)C2)cc1OC (configuration not stated)
157 µM (inactive)

Answer with the recorded GI50 for the compound listed here: CC1=C2C=CC(=O)C[C@@]2(C)CCC1
> 100 µM (inactive)

Provide one value: measured GI50 of Cc1c(C(=O)/C=C/c2ccc3c(c2)OCO3)[n+]([O-])c2ccccc2[n+]1[O-]
36.2 µM (inactive)

Look up GI50 of CC(=O)CC(=O)NC=O and report it.
> 100 µM (inactive)

Quickly give me recorded GI50 for CC(=O)c1cccc(C)c1C(=O)O
95.5 µM (inactive)

Answer with reported GI50 of CC(=O)OCC1OC(n2cc(F)c(=O)[nH]c2=O)C(OC(C)=O)C1OC(C)=O (configuration not stated)
> 100 µM (inactive)

----------
tested on: SNB-19; test: NCI tumour cell line growth inhibition, 48 h
Activity calls are given as the source filed them. No stated cut-off is given here; in the data, active = GI50 up to about 1.1 µM and inactive = higher.
MEASURE: GI50

Provide only the value of recorded GI50 for Cc1nn(C(=O)c2ccncc2)c2c1C(c1ccccc1O)SC(=N)N2 (stereo not given)
> 10 µM (inactive)

// fetch GI50 given entry O=C1C(Cl)=C(Cl)C(=O)N1c1cccc(C(F)(F)F)c1
> 100 µM (inactive)

Read the entry Cc1nc2c(s/c(=N\N)n2-c2ccccc2)c(=O)[nH]1 and write its reported GI50.
> 100 µM (inactive)

Please report GI50 for the following molecule: CCOC(=O)c1cc2c3ccn(Cc4ccccc4)c3c3c(C)noc3c2[nH]1
> 100 µM (inactive)

Given COc1cc(/C=C(\C)c2ccc3c(c2)OCO3)cc(OC)c1OC , respond with its GI50.
50.7 µM (inactive)

Quick one: give measured GI50 for Cc1c(C(=O)/C=C/c2ccc3c(c2)OCO3)[n+]([O-])c2ccccc2[n+]1[O-]
56 µM (inactive)

Item COc1ccc2nc3c([N+](=O)[O-])ccc4c3c(c2c1)N=CN4CCCN(C)C : provide GI50
4.74 µM (inactive)

Give me measured GI50, please, for this molecule: COc1cc(/C=C2/SC(c3ccccc3)N(c3ccc(Cl)cc3)C2=O)cc(OC)c1OC (stereo not given)
> 58.2 µM (inactive)

Quote GI50 reported for NNc1nnc(-c2ccccc2)nc1Cc1ccccc1 please.
6.62 µM (inactive)

Given CCOP(=O)(OCC)OC1c2[nH]ccc2-c2cc(C(=O)OC)[nH]c2C1OC (stereo not given) , respond with its GI50.
> 100 µM (inactive)
